Just for reference, ChEMBL document CHEMBL4043220 is where these values come from.

tested system: PDE5A (Homo sapiens, UniProt O76074)
measurement notes: Inhibition of human PDE5A at 100 uM
reported property: inhibition at 100 µM (%)
I only need the number, in %, no unit after it.

// lookup inhibition at 100 µM for COc1cc2c(cc1OC1CCCC1)CN1C(=O)OCC1C2 (racemic) 14

----------
tested system: PDE8A (Homo sapiens)
Sequence (O60658 whole entry): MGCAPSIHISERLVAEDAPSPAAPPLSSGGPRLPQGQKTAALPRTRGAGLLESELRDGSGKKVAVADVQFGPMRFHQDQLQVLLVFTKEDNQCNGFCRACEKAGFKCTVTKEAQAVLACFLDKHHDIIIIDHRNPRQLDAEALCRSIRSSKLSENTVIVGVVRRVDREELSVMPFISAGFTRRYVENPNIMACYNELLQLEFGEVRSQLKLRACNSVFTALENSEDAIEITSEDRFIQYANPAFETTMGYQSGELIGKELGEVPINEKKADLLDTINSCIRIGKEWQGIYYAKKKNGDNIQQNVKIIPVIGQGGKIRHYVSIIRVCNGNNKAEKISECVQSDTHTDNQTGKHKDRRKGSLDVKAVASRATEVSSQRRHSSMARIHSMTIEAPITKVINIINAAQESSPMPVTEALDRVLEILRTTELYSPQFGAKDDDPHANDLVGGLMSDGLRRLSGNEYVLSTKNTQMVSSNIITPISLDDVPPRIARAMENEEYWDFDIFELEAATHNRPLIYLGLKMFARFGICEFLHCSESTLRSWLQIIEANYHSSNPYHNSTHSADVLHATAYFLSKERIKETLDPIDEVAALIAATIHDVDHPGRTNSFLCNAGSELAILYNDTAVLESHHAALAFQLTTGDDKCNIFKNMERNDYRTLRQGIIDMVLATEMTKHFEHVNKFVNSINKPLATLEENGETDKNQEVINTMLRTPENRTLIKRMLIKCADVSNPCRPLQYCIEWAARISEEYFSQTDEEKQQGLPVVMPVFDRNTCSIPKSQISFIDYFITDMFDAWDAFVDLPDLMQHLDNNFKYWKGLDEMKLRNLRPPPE
measurement notes: Inhibition of human PDE8A at 100 uM
reported property: inhibition at 100 µM (%)
Answer format: numeric, % implied, no suffix.

Give the reported inhibition at 100 µM for COc1cc2c(cc1OC1CCCC1)CN1C(=O)OCC1C2 (racemic) (system: PDE8A (Homo sapiens)). 12

----------
tested system: PDE6C (Homo sapiens)
Sequence (P51160 whole entry): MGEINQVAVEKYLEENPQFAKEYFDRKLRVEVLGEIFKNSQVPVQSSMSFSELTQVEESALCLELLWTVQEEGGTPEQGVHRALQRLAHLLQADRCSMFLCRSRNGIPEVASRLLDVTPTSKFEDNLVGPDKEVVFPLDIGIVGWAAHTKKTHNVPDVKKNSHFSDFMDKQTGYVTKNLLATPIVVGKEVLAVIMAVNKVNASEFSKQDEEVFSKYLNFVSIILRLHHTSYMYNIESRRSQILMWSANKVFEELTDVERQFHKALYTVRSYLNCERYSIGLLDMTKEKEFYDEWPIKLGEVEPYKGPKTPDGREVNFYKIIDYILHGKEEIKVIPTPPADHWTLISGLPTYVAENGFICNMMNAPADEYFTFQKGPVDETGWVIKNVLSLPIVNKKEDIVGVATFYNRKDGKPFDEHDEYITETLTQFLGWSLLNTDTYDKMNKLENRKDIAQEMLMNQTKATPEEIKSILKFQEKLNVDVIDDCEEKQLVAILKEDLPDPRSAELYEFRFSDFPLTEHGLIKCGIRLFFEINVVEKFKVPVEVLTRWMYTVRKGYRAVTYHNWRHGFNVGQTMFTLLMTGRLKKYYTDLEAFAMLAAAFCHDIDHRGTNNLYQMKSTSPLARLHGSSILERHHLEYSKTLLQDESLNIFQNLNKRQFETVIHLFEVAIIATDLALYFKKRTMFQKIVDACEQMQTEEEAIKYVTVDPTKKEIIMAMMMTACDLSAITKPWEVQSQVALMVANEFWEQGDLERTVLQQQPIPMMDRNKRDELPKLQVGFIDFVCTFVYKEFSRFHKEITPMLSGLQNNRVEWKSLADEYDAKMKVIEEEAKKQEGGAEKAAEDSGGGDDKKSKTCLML
measurement notes: Inhibition of human PDE6C at 100 uM
reported property: inhibition at 100 µM (%)
# unit: % | format: bare number

Looking for the measured inhibition at 100 µM of COc1cc2c(cc1OC1CCCC1)CN1C(=O)OCC1C2 (racemic) , can you help? 8

----------
tested system: 3',5'-cyclic-AMP phosphodiesterase 4B (Homo sapiens, UniProt Q07343)
Sequence (Q07343 whole entry): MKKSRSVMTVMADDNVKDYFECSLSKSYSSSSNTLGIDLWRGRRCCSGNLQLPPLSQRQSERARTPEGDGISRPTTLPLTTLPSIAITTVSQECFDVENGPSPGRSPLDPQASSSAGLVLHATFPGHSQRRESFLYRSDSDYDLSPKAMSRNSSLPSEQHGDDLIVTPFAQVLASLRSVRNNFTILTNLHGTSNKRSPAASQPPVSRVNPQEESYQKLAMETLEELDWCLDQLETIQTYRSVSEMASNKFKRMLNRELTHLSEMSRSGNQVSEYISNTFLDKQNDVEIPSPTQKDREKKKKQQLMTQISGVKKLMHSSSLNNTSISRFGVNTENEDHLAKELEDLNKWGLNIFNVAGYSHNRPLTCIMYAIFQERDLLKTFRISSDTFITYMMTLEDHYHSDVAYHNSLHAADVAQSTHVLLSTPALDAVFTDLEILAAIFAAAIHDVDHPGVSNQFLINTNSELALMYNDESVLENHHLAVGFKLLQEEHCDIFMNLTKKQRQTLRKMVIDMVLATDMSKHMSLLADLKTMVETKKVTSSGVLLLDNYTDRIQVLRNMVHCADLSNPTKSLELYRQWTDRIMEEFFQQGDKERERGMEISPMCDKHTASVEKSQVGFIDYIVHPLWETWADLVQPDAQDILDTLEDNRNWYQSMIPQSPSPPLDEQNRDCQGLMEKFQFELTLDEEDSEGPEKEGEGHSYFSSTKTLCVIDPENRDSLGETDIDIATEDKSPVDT
measurement notes: Inhibition of PDE4B isolated from human U937 cells using [3H]-cAMP incubated for 30 mins
Listed here: items and their measured pIC50.
In plain terms, pIC50 is the concentration in mol/L turned into minus its base-10 logarithm.

INSERT INTO results (compound, tested_system, result_value) VALUES
  ('CCCOc1cc2c(cc1OC)CC1COC(=O)N1C2 (racemic)', '3'',5''-cyclic-AMP phosphodiesterase 4B (Homo sapiens, UniProt Q07343)', 4.65);

Now look at this entry.
Give recorded pIC50 with 3',5'-cyclic-AMP phosphodiesterase 4B (Homo sapiens, UniProt Q07343) for the following compound: CCCCCCOc1cc2c(cc1OC)CC1COC(=O)N1C2 (racemic) 5.22

----------
tested system: 3',5'-cyclic-AMP phosphodiesterase 4B (Homo sapiens, UniProt Q07343)
measurement notes: Inhibition of PDE4B isolated from human U937 cells using [3H]-cAMP incubated for 30 mins
reported property: pIC50
Quick note: pIC50 means taking -log10 of the concentration in moles per liter.

INSERT INTO measurements (molecule, reported_property, result_value) VALUES
  ('CCCCCOc1cc2c(cc1OC)CC1COC(=O)N1C2 (racemic)', 'pIC50', 5.39),
  ('COc1cc2c(cc1OC1CCCC1)C(c1ccccc1)N1C(=O)OCC1C2 (mixture of isomers)', 'pIC50', 5.71),
  ('COc1cc2c(cc1OCc1ccccc1)CN1C(=O)OCC1C2 (stereo not given)', 'pIC50', 5.09),
  ('COc1cc2c(cc1OC1CCCC1)CN1C(=O)OCC1C2 (racemic)', 'pIC50', 6.22),
  ('COc1cc2c(cc1OCC1CC1)CN1C(=O)OCC1C2 (racemic)', 'pIC50', 5.89);

Look at this molecule and give its reported pIC50. COc1cc2c(cc1OC1CCCC1)C(C)N1C(=O)OCC1C2 (mixture of isomers) 5.87

Record request: pIC50 value, item CCCCCCC1c2cc(OC3CCCC3)c(OC)cc2CC2COC(=O)N21 (mixture of isomers) 5.68

Return reported pIC50; argument: COc1cc2c(cc1OC1CCCCC1)CN1C(=O)OCC1C2 (racemic) 5.58

// query pIC50 value for entry COc1cc2c(cc1OC1CCCC1)C(C1CCCCC1)N1C(=O)OCC1C2 (mixture of isomers) 5.69

Quick one: pIC50 for COc1cc2c(cc1OC)CN1C(=O)OCC1C2 (racemic) ? 4.28
